These data points were gathered from patent US20250270315A1.

- assayed-system: full length human SIRPα v1 with a small beta-gal fragment (ED) fused to its C-terminal, expressed in K562 … (human, UniProt P78324 31-504)
- Sequence (P78324 31-504): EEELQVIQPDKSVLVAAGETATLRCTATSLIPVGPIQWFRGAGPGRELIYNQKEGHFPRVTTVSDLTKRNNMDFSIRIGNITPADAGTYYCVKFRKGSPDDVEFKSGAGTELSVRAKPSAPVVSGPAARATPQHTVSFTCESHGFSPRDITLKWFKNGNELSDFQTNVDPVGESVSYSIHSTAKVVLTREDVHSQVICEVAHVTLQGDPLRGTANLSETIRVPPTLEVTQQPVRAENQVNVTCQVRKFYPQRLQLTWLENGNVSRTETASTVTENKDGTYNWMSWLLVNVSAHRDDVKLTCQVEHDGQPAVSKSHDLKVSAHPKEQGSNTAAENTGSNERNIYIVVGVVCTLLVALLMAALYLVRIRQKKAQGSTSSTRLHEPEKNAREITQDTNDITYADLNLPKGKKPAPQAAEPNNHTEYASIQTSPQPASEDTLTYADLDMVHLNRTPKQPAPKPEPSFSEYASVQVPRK
- assay-text: cell-based or functional assay
reported-property: SHP-1 recruitment blocking, IC50
Report as: number unit

// query SHP-1 recruitment blocking, IC50 value for entry hu025.059 (antibody, V domains shown, Humanized 025; also called hu025.59) VH: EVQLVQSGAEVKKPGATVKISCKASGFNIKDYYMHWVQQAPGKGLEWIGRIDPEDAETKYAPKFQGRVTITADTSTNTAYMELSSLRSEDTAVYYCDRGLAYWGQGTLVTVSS VL: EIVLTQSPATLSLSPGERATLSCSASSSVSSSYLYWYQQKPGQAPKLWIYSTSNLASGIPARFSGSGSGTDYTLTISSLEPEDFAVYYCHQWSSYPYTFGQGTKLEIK
0.1 nM
